Assay: chemical genetic growth profiling, strain panel (AID 1159580);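 also: tested at 20 µM; growth read once vehicle control cultures reached saturation at 30 °C; 1 = growth at the plate median or of vehicle wells; lower values mean less growth of the strain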
Conditions: S. cerevisiae deletion strains, growth OD, locus YBL105C, strain PKC1, active compounds read low
Hit rate of the full screen: of about 5,500 compounds, about 2,000 (36%) were called active. Not shown: some 18% with an inconclusive outcome. Some of the results follow.
Property: normalized growth; scope: individual molecules

Solved cases (3 shown):
N#C/C(N=Cc1cc(Cl)cc(Cl)c1O)=C(\C#N)N=Cc1cc(Cl)cc(Cl)c1O | 0.929 (inactive)
CC(C)(C)NC(=S)N/N=C\c1cc(Br)c(O)c(Br)c1 | 0.969 (inactive)
Cc1cc(Br)c(O)c(/C=N\NC(=S)NC(C)(C)C)c1 | 0.987 (inactive)

For record `CCOC(=O)NC(=S)Nc1ccc(C(C)(C)C)cc1NC(=S)NC(=O)OCC` the listed normalized growth is 0.985 (inactive)

For record `O=S(=O)(c1cc(Cl)ccc1Cl)N1CCc2ccccc2C1` the listed normalized growth is 0.977 (inactive)

* * *

Assay: chemical genetic growth profiling, strain panel (AID 1159580);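 also: tested at 20 µM; growth read once vehicle control cultures reached saturation at 30 °C; 1 = growth at the plate median or of vehicle wells; lower values mean less growth of the strain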
Conditions: S. cerevisiae deletion strains, growth OD, locus YJL092W, strain hpr5, active compounds read low
Hit rate of the full screen: of about 5,500 compounds, about 2,000 (36%) were called active. Inconclusive results (about 18%) are left out. The list shows a part of the results.
PROPERTY_MEASURED: normalized growth
Write the value as a bare number.

Solved cases (6 shown):
O=c1c(O)cc([C@H]2Oc3cc(O)cc(O)c3C[C@H]2O)cc2c([C@H]3Oc4cc(O)cc(O)c4C[C@H]3O)cc(O)c(O)c12 | 1.03
COc1ccc(-c2cc(=O)c3c(O)cc(O)cc3o2)cc1 | 0.983
NC[C@@H]1O[C@H](O[C@@H]2[C@@H](CO)OC(O[C@@H]3[C@@H](O)[C@H](N)C[C@H](N)[C@H]3O[C@H]3O[C@H](CO)[C@@H](O)[C@H](O)[C@H]3N)[C@@H]2O)[C@H](N)[C@@H](O)[C@@H]1O (stereo partly drawn) | 0.993
CC1(C)C(O)CC(=O)C2(C)C1CC(O)C1(C)C2CCC2(C)C(c3ccoc3)OC(=O)C3OC321 (stereo not drawn) | 1.01
Cc1ccc(-c2nc3ccc(C)cn3c2CC(=O)N(C)C)cc1 | 1.02
COc1cc(O)c2c(=O)cc(-c3ccc(OC)c(-c4c(O)cc(O)c5c(=O)cc(-c6ccc(O)cc6)oc45)c3)oc2c1 | 1.02

For record `COc1cc(C(=O)N2CCOCC2)cc(OC)c1OC` the listed normalized growth is 0.972

For record `COc1cc2c(cc1OC)-c1c(oc3cc(O)cc(O)c3c1=O)CO2` the listed normalized growth is 1.02

For record `O=C(Oc1cccc2cccnc12)c1ccccc1` the listed normalized growth is 0.972

For record CC1(C)C(=O)CC[C@@]2(C)C1C[C@@H](O)[C@@]1(C)C3=CC(=O)O[C@@H](c4ccoc4)[C@]3(C)CCC21 (stereo partly drawn) the listed normalized growth is 1.03

For record `CC1=CC(=O)C(C(C)C)=CC1=O` the listed normalized growth is 0.989

For record `COc1ccc(-c2cc(=O)c3c(OC)c(OC)c(OC)c(OC)c3o2)cc1OC` the listed normalized growth is 0.996
